Hey, just so you know, these numbers are from PubChem BioAssay.

# Assay: stimulators of nuclear beta-catenin in C2C12, primary screen, imaging, WNT3A-conditioned medium, mouse C2C12, NPC library (AID 1117326); note: reference of the scale not given here
# Recorded conditions: stimulation, at 2 µM, stronger effect = higher value
Non-standard residues stand in square brackets, D forms with d. Residues, ends and D or L forms follow the SMILES beside them. pGlu = O=C1CC[C@@H](C(=O)O)N1
This listing pairs compounds with measured nuclear beta-catenin stimulation.
Endpoint name: nuclear beta-catenin stimulation

1) COc1cc(C(=O)OC(COCCC(C)C)CN2CCOCC2)cc(OC)c1OC (stereo unspecified): 2.6%
2) N=C(N)c1ccc(OCCCCCOc2ccc(C(=N)N)cc2)cc1: 1.1%
3) CCOC(=O)C(C#N)=C(c1ccccc1)c1ccccc1: 1.8%
4) Cc1cc(N)c2cc(NC(=O)Nc3ccc4nc(C)cc(N)c4c3)ccc2n1: -2.2%
5) CCOC(=O)C1=C(C)NC(C)=C(C(=O)OC)C1c1cccc([N+](=O)[O-])c1 (stereo unspecified): 1.2%
6) NS(=O)(=O)c1cc2c(cc1Cl)NCNS2(=O)=O: 0.8%
7) O=C(CCCN1CCN(c2ccc(F)cc2)CC1)NC1c2ccccc2CSc2ccccc21 (stereo unspecified): 1.3%
8) CC1(C)O[C@@H]2C[C@H]3[C@@H]4CCC5=CC(=O)C=C[C@]5(C)[C@@H]4[C@@H](O)C[C@]3(C)[C@]2(C(=O)CO)O1: 1.2%
9) COc1cc([C@@H]2c3cc4c(cc3[C@H](O)[C@H]3COC(=O)[C@H]23)OCO4)cc(OC)c1OC: 77%
10) CC(=O)/C=C/C=C1/C2CCC(C2)C1(C)C (stereo unspecified): 3.3%
11) N[C@@H](CSCCCO)C(=O)O: 1.4%
12) O=[N+]([O-])c1ccc(/C=N\O)o1: 0.4%
13) CCc1cc(C(N)=S)ccn1: 0.5%
14) CC(C)(Cc1c[nH]c2ccccc12)NCC(O)COc1ccccc1C#N (stereo unspecified): 0%
15) CN(C)[C@@H]1C(=O)C(C(N)=O)=C(O)[C@@]2(O)C(=O)C3=C(O)c4c(O)cccc4C[C@H]3C[C@@H]12: -0.5%
16) CN1CCN(CCC(=O)N2c3ccccc3Sc3ccc(C(F)(F)F)cc32)CC1: 2.1%
17) OC[C@H]1O[C@@H](n2cnc3c(=S)nc[nH]c32)[C@H](O)[C@@H]1O: -0.2%
18) CCCc1ccc(OCC(=O)N2CCN(C(=O)COc3ccc(CCC)cc3OC)CC2)c(OC)c1: 2.5%
19) CCCSS/C(CCO)=C(\C)N(C=O)Cc1cnc(C)nc1N: -0.7%
20) NCc1ccccc1Sc1ccccc1CO: 1%
21) CCNC(=O)[C@@H]1CCCN1C(=O)[C@H](CCCN=C(N)N)NC(=O)[C@H](CC(C)C)NC(=O)CNC(=O)[C@H](Cc1ccc(O)cc1)NC(=O)[C@H](CO)NC(=O)[C@H](Cc1c[nH]c2ccccc12)NC(=O)[C@H](Cc1cnc[nH]1)NC(=O)[C@@H]1CCC(=O)N1 ([pGlu]HWSYGLRP-NHEt): -0.6%
22) CCN1CCCC1=O: 2.9%
23) CCc1cc2cc(OC)c(OC)cc2c(Cc2ccccc2)n1: 3.1%
24) COc1cc(S(N)(=O)=O)cc(C(=O)O)c1OC: 3.5%
25) Nc1c(N=Nc2ccc(-c3ccc(N=Nc4cc(S(=O)(=O)O)c5ccccc5c4N)cc3)cc2)cc(S(=O)(=O)O)c2ccccc12: 0.3%
26) CCN(CC)CC(=O)Nc1c(C)cccc1C: 0.8%
27) O=C(O)Cc1ccc2c(c1)C(=O)c1ccccc1CO2: 0.6%
28) O=C(O)C1CSC(C(=O)O)N1 (stereo unspecified): 1.2%
29) NC(N)=NC(=O)c1nc(Cl)c(N)nc1N: -2%
30) NS(=O)(=O)c1cc(C2(O)NC(=O)c3ccccc32)ccc1Cl (stereo unspecified): 6.2%
31) Nc1ncnc2c1ncn2Cc1c(F)cccc1Cl: -2.1%
32) CCC(=O)O: 1.3%
33) CCCCCCCCCCCCCCCC[N+](C)(C)CC: 9.2%
34) CC(C)C(=O)Nc1cccc(C2CN3CCSC3=N2)c1 (stereo unspecified): 1.8%
35) CS(=O)(=O)OCCCCOS(C)(=O)=O: 0.6%
36) C[C@@H](O)[C@H](N)C(=O)O: 0.7%
